Exercise: state measured IC50 for each of the compounds provided.
- EXPERIMENTAL_TARGET: PTP-H1 (Homo sapiens)
- Construct: using the catalytic core of a human recombinant PTP as the enzyme
- Sequence (P26045 646-901 limits assumed): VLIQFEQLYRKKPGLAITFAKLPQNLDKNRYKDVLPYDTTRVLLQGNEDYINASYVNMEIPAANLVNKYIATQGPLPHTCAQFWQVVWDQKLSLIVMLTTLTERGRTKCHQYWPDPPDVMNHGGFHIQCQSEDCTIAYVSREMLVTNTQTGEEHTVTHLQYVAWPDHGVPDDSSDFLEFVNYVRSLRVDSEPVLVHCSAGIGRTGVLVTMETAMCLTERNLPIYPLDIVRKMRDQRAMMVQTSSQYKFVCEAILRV
- RUN_DESCRIPTION: PTP Enzyme Assay (DiFMUP), PTP-H1
- EXPERIMENTAL_PARAMETERS: 5 μM DiFMUP substrate; catalytic core of human recombinant PTP; triplicates; read-out: IC50 value in respect of PTP-H1
Field format: number, assumed µM, no unit text.

Return the recorded IC50 value; entry: CCCCCCCCC#Cc1ccc(CN(C(=O)CCC2CCCC2)c2ccc(O)c(C(=O)O)c2)cc1
3.37

Complete the entry with IC50 for CCCCCCCCC#Cc1ccc(CN(Cc2ccc(OCC(=O)O)c(C(=O)O)c2)C(=O)/C=C/c2ccccc2)cc1
5.7

For CCCCc1ccc(C#Cc2ccc(CN(C(=O)C(C)(C)C)c3ccc(C(=O)O)c(O)c3)cc2)cc1 , write its IC50.
6.3

Assign IC50 to the following record: CCCCc1ccc(C#Cc2ccc(CN(C(=O)Cc3cccs3)c3ccc(F)c(C(=O)O)c3)cc2)cc1
9.9
